# Tested on: mouse RANKL mRNA
# Procedure details: Antisense inhibition of mouse RANKL mRNA levels in C2C12 cells, quantitative real-time PCR (Table 2)
# Assay type: cell-based
# Set-up: concentration or dose not given beside the values
# Assay context: averages from three experiments
Strand notation (5' to 3'): a small letter for the sugar, then the base; units joined by * are phosphorothioate-linked, units joined directly phosphodiester-linked; [ ] holds rarer units or linkages, { } end groups; capitals alone tell only the bases. e = 2'-O-(2-methoxyethyl) (MOE); [5mC] = 5-methylcytosine; d = 2'-deoxy (DNA)
Items are presented alongside their recorded % INHIB (inhibition of mouse RANKL mRNA levels).
A number alone suffices; assume %.

Please review the following examples before continuing.
180816 (antisense eA*e[5mC]*e[5mC]*eG*eT*dT*dG*dT*dG*dT*dA*dA*dT*d[5mC]*dA*e[5mC]*e[5mC]*eA*eT*eG) [compound 180816] ... 35
180819 (antisense eT*eG*e[5mC]*eA*eG*dG*dT*d[5mC]*d[5mC]*d[5mC]*dA*dG*d[5mC]*dG*d[5mC]*eA*eA*eT*eG*eT) [compound 180819] ... 66
180832 (antisense eG*eG*eA*eA*eA*dA*dA*dA*dA*dA*dG*dA*dA*dA*d[5mC]*e[5mC]*eA*eA*eA*eA) [compound 180832] ... 0
180830 (antisense eT*eG*eA*eA*eA*dG*dG*d[5mC]*dA*d[5mC]*d[5mC]*dT*dG*dG*dT*eG*eA*e[5mC]*e[5mC]*eA) [compound 180830] ... 5
180824 (antisense eT*eG*eT*e[5mC]*eA*dA*d[5mC]*dA*dG*dT*dG*dA*dG*dA*d[5mC]*eA*eT*eT*eT*eT) [compound 180824] ... 29

Query: Return value of % INHIB (inhibition of mouse RANKL mRNA levels) for input 180788 (antisense eG*eT*eT*e[5mC]*eA*d[5mC]*dA*dA*dA*dG*dG*dT*d[5mC]*d[5mC]*dT*eG*eG*e[5mC]*eA*eG) [compound 180788] , no commentary.
Reply: 62

Query: Please supply the value of reported % INHIB (inhibition of mouse RANKL mRNA levels) for the item 180809 (antisense eG*eG*eA*eT*eT*dT*dT*dG*dA*dT*dG*d[5mC]*dT*dG*dG*eT*eT*eT*eT*eA) [compound 180809]
Reply: 53

* * *

# Tested on: rat RANKL mRNA
# Procedure details: Antisense inhibition of rat RANKL mRNA levels in UMR-106 cells, quantitative real-time PCR (Table 3)
# Assay type: cell-based
# Parameters: concentration or dose not given beside the values
# Assay context: averages from three experiments
Strand notation (5' to 3'): a small letter for the sugar, then the base; units joined by * are phosphorothioate-linked, units joined directly phosphodiester-linked; [ ] holds rarer units or linkages, { } end groups; capitals alone tell only the bases. e = 2'-O-(2-methoxyethyl) (MOE); [5mC] = 5-methylcytosine; d = 2'-deoxy (DNA)
Entries and their % INHIB (inhibition of rat RANKL mRNA levels)
Your answer should be a plain number; it is taken to be in %.

Solved entries (count: 3):
286615 (antisense eT*eA*eG*eA*eG*dA*dT*d[5mC]*dT*dT*dG*dG*d[5mC]*d[5mC]*d[5mC]*eA*eG*e[5mC]*e[5mC]*eT) [compound 286615] ... 45
286595 (antisense eT*eA*eG*eG*eA*dT*d[5mC]*d[5mC]*dA*dT*d[5mC]*dT*dG*d[5mC]*dG*e[5mC]*eT*e[5mC]*eG*eA) [compound 286595] ... 46
286599 (antisense e[5mC]*eG*e[5mC]*eG*eT*dG*d[5mC]*dT*dG*dT*d[5mC]*dT*dT*d[5mC]*dT*eG*eA*eT*eA*eT) [compound 286599] ... 46

We next turn to a different substance, shown below.
Query: Look up and state reported % INHIB (inhibition of rat RANKL mRNA levels) for 286654 (eA*e[5mC]*eT*eT*eA*dT*dT*dT*dG*d[5mC]*dA*dG*dG*dT*dT*e[5mC]*e[5mC]*eA*eG*e[5mC]; antisense) [compound 286654]
Reply: 55

* * *

# Test system: mouse RANKL mRNA
# Procedure details: Antisense inhibition of mouse RANKL mRNA levels in C2C12 cells, quantitative real-time PCR (Table 2)
# Assay type: cell-based
# Design: concentration or dose not given beside the values
# Assay context: averages from three experiments
Strand notation (5' to 3'): a small letter for the sugar, then the base; units joined by * are phosphorothioate-linked, units joined directly phosphodiester-linked; [ ] holds rarer units or linkages, { } end groups; capitals alone tell only the bases. e = 2'-O-(2-methoxyethyl) (MOE); [5mC] = 5-methylcytosine; d = 2'-deoxy (DNA)
Parameter: % INHIB (inhibition of mouse RANKL mRNA levels) (%)
# number only, unit % dropped from output

See these solved cases before continuing.
180789 (antisense eG*e[5mC]*eA*eG*eA*d[5mC]*dT*d[5mC]*d[5mC]*dG*d[5mC]*d[5mC]*dA*d[5mC]*dG*eG*e[5mC]*e[5mC]*e[5mC]*e[5mC]) [compound 180789] ... 34
180818 (antisense eT*e[5mC]*eA*eG*eT*dG*dG*d[5mC]*dA*d[5mC]*dA*dT*dG*dT*d[5mC]*e[5mC]*eA*eG*eG*eG) [compound 180818] ... 59
180817 (antisense eG*e[5mC]*eA*eT*e[5mC]*dG*dG*dA*dA*dT*dA*d[5mC]*d[5mC]*dT*d[5mC]*eT*e[5mC]*e[5mC]*e[5mC]*eA) [compound 180817] ... 51
180801 (antisense eA*eA*e[5mC]*eA*eT*dG*dG*dA*dG*d[5mC]*dG*dG*dG*dA*dG*eG*e[5mC]*eG*eG*e[5mC]) [compound 180801] ... 40
180827 (antisense eA*eG*e[5mC]*eT*eA*d[5mC]*dG*dA*dG*dT*dA*d[5mC]*d[5mC]*dT*dT*e[5mC]*eA*eG*eG*eG) [compound 180827] ... 54
180831 (antisense e[5mC]*e[5mC]*eT*eG*eA*d[5mC]*dA*dG*dA*dT*dT*dT*d[5mC]*dA*dG*eT*eA*eG*e[5mC]*e[5mC]) [compound 180831] ... 54

Please look at the following substance next.
Query: In one line, give reported % INHIB (inhibition of mouse RANKL mRNA levels) of the entry 180812 (antisense eT*e[5mC]*e[5mC]*eG*eG*dA*dT*d[5mC]*d[5mC]*dA*dG*d[5mC]*dA*dG*dG*eG*eA*eA*eG*eG) [compound 180812] .
Reply: 47

* * *

# Tested on: mouse RANKL mRNA
# Procedure details: Antisense inhibition of mouse RANKL mRNA in C2C12 cells: dose response (Table 5)
# Assay type: cell-based
# Assay context: 75 nM oligonucleotide, relative to untreated control
Strand notation (5' to 3'): a small letter for the sugar, then the base; units joined by * are phosphorothioate-linked, units joined directly phosphodiester-linked; [ ] holds rarer units or linkages, { } end groups; capitals alone tell only the bases. e = 2'-O-(2-methoxyethyl) (MOE); [5mC] = 5-methylcytosine; d = 2'-deoxy (DNA)
Reported % Inhibition of RANKL mRNA values are given for each entry in this list.
Quick note: unit goes after the number.

Some substances with recorded % Inhibition of RANKL mRNA:
180812 (antisense eT*e[5mC]*e[5mC]*eG*eG*dA*dT*d[5mC]*d[5mC]*dA*dG*d[5mC]*dA*dG*dG*eG*eA*eA*eG*eG) [compound 180812] ... 13%
180814 (antisense eG*eT*e[5mC]*eT*eT*dA*d[5mC]*dA*d[5mC]*dA*dT*dG*dT*dA*dT*eA*eG*eA*e[5mC]*eA) [compound 180814] ... 61%
180819 (antisense eT*eG*e[5mC]*eA*eG*dG*dT*d[5mC]*d[5mC]*d[5mC]*dA*dG*d[5mC]*dG*d[5mC]*eA*eA*eT*eG*eT) [compound 180819] ... 57%

Below: the item to evaluate.
Query: Tell me % Inhibition of RANKL mRNA reported for 180828 (antisense eT*eT*eT*eA*eT*dT*dT*dT*dG*d[5mC]*dT*dT*dG*d[5mC]*dA*eT*eA*eG*eT*eT) [compound 180828]
Reply: 23%

* * *

# System: mouse RANKL mRNA
# Procedure details: Antisense inhibition of mouse RANKL mRNA levels in C2C12 cells, quantitative real-time PCR (Table 2)
# Assay type: cell-based
# Design: concentration or dose not given beside the values
# Assay context: averages from three experiments
Strand notation (5' to 3'): a small letter for the sugar, then the base; units joined by * are phosphorothioate-linked, units joined directly phosphodiester-linked; [ ] holds rarer units or linkages, { } end groups; capitals alone tell only the bases. e = 2'-O-(2-methoxyethyl) (MOE); [5mC] = 5-methylcytosine; d = 2'-deoxy (DNA)
Parameter: % INHIB (inhibition of mouse RANKL mRNA levels). Scope: all listed entries.
A bare number is not enough; add the unit after it.

180802 (antisense eG*e[5mC]*eT*e[5mC]*eG*dA*dA*dA*dG*dT*dA*d[5mC]*dA*dG*dG*eA*eA*e[5mC]*eA*eG) [compound 180802] ... 79%
180795 (antisense eG*e[5mC]*eT*eG*eG*d[5mC]*d[5mC]*d[5mC]*dG*dG*d[5mC]*dG*d[5mC]*dA*dT*eG*eG*e[5mC]*eG*e[5mC]) [compound 180795] ... 62%

Continue with the next substance.
Query: Give % INHIB (inhibition of mouse RANKL mRNA levels) only, for 180823 (antisense eT*eA*eA*eA*eT*dA*dT*dT*dT*dT*dG*dA*dA*dT*d[5mC]*eA*eA*eA*eT*eA) [compound 180823] , using mouse RANKL mRNA data.
Reply: 9%
